# System: K. pneumoniae (ATCC10031)
# EXPERIMENT_DESCRIPTION: 50% growth inhibitory concentration (IC50) determination assay
# Assay type: cell-based
# CONDITION_SUMMARY: Klebsiella pneumoniae, Iso-Sensitest broth, 0.098 = detection limit
In this section, each of the compounds is paired with its reported IC50.

COMPOUND: CCN(CC)CCn1cc(C(=O)O)c(=O)c2cc(-c3cnc4[nH]c5c(NC)cc(F)c(F)c5c4c3N3CCOCC3)cnc21 [Example 1.73]
IC50: < 0.098 µM
--
COMPOUND: CNc1cc(F)c(F)c2c1[nH]c1ncc(-c3cnc4c(c3)c(=O)c(C(=O)O)cn4C)c(N(C)C)c12 [Example 1.01]
IC50: < 0.098 µM
--
COMPOUND: CNc1cc(F)c(F)c2c1[nH]c1ncc(-c3cnc4c(c3)c(=O)c(C(=O)O)cn4NC)c(N3CC[C@H]4CN(C)CC43)c12 (stereo partly drawn) [Example 1.189]
IC50: < 0.098 µM

====

# EXPERIMENT_DESCRIPTION: Lyophilisation solubility assay (LYSA)
# Format: physicochemical
# CONDITION_SUMMARY: phosphate buffer, pH 6.5, aqueous buffer, thermodynamic from solid, 0.05 M phosphate buffer, HPLC-UV

COMPOUND: CNc1cc(F)c(F)c2c1[nH]c1ncc(-c3cnc4c(c3)c(=O)c(C(=O)O)cn4C)c(N3CCC4(CCCN4C)CC3)c12
solubility thermodynamic: 19 µg/mL

COMPOUND: CNc1cc(F)cc2c1[nH]c1ncc(-c3cnc4c(c3)c(=O)c(C(=O)O)cn4NC)c(N3C[C@H]4CCN(C)[C@H]4C3)c12 [Example 3.17A]
solubility thermodynamic: 118 µg/mL

COMPOUND: CNc1cc(F)cc2c1[nH]c1ncc(-c3cnc4c(c3)c(=O)c(C(=O)O)cn4NC)c(N3C[C@@H]4OCCN(C)[C@@H]4C3)c12 [Example 3.23B]
solubility thermodynamic: 58 µg/mL

COMPOUND: CNc1cc(F)c(F)c2c1[nH]c1ncc(-c3cnc4c(c3)c(=O)c(C(=O)O)cn4C)c(N3CC4[C@@H](C3)CN4C)c12 (stereo partly shown)
solubility thermodynamic: 41 µg/mL

COMPOUND: CNc1cc(F)c(F)c2c1[nH]c1ncc(-c3cnc4c(c3)c(=O)c(C(=O)O)cn4NC)c(N3CCOC(CN(C)C)C3)c12 (stereo not shown)
solubility thermodynamic: 70 µg/mL

COMPOUND: CNc1cc(F)cc2c1[nH]c1ncc(-c3cnc4c(c3)c(=O)c(C(=O)O)cn4NC)c(N3CCC(F)(CN(C)C)C3)c12 (stereo not shown)
solubility thermodynamic: 88 µg/mL

COMPOUND: CNc1cc(F)c(F)c2c1[nH]c1ncc(-c3cnc4c(c3)c(=O)c(C(=O)O)cn4C)c(N3CCC4(CCCN(C)C4)C3)c12 (stereo not shown)
solubility thermodynamic: 62 µg/mL

COMPOUND: CNc1cc(F)c(F)c2c1[nH]c1ncc(-c3cnc4c(c3)c(=O)c(C(=O)O)cn4C)c(N3CCCC(N(C)CCO)C3)c12 (stereo not shown)
solubility thermodynamic: 124 µg/mL

COMPOUND: CCn1cc(C(=O)O)c(=O)c2cc(-c3cnc4[nH]c5c(NC)cc(F)cc5c4c3N3CC[C@H]4CN(C)CC43)cnc21 (stereo partly shown)
solubility thermodynamic: 113 µg/mL

COMPOUND: CNc1cc(F)cc2c1[nH]c1ncc(-c3cnc4c(c3)c(=O)c(C(=O)O)cn4C)c(N3CCC4(C)CN(C)CC34)c12 (stereo not shown)
solubility thermodynamic: > 632 µg/mL

COMPOUND: CNc1cc(F)cc2c1[nH]c1ncc(-c3cnc4c(c3)c(=O)c(C(=O)O)cn4NCC(F)(F)F)c(N3CCC[C@H]3CN(C)C)c12
solubility thermodynamic: 201 µg/mL

COMPOUND: CNc1cc(F)c(F)c2c1[nH]c1ncc(-c3cnc4c(c3)c(=O)c(C(=O)O)cn4C)c(N3CCC4(CCCN(CCOC)C4)C3)c12 (stereo not shown)
solubility thermodynamic: 29 µg/mL

COMPOUND: CNc1cc(F)c(F)c2c1[nH]c1ncc(-c3cnc4c(c3)c(=O)c(C(=O)O)cn4C)c(N3CCC(O)(CN(C)C)C3)c12 (stereo not shown)
solubility thermodynamic: 632 µg/mL
